meta.source: the OligoGym collection

- Tgt: ZDHHC20
- Assay overview: pooled miR-30 sensor sort-seq; sequence = guide strand; also: reference of the scale not given here
- Test parameters: shRNA
Entry flag: Met if sensor-assay potency score (higher = more potent) reaches -0.4; Not met if it does not.

Chain	Tgt	Group
TTATAAAGTACTCTAAAACTGT	ZDHHC20	Not met
TTCAGCTCCATTCTCCAGCCAC	ZDHHC20	Met
TTGTAACAGAAGCTTGTTCTGG	ZDHHC20	Met
TTCTTCAGCTCCATTCTCCAGC	ZDHHC20	Not met
TTTCTTGTTGTCTTTCTTGGCT	ZDHHC20	Met
TAAAGTACTCTAAAACTGTTGC	ZDHHC20	Met
TTTTGCACGTGTATCTGTCAGT	ZDHHC20	Not met
TTGGACAAGTAGAACTCTTTGG	ZDHHC20	Met
TTGTTGTTCTATTTTTTCCAAC	ZDHHC20	Not met

---

- Tgt: SNN
- Assay overview: pooled miR-30 sensor sort-seq; sequence = guide strand
- Test parameters: shRNA
Each entry below carries its recorded sensor-assay potency score (higher = more potent).
Readout: sensor-assay potency score (higher = more potent)

Chain	Measured
TTGGCCTTTCTCTCCACGCACG	-1.27
TTCTCTCCACGCACGGTCCCTT	-1.08
TCCTCTGACTGGCTGATGCGCT	-1.54
TTGGGAGTCATCAGCTTGGCCT	-0.835
AATGAGGATGACGATGACTGTG	-0.905
TGACTGGCTGATGCGCTGCAGC	-1.74
TTACAGTAGTAGCTCCATCAAA	-1.39

---

Each entry below carries its recorded sensor-assay potency score (higher = more potent).
- Tgt: HECTD1
- Assay overview: pooled miR-30 sensor sort-seq; sequence = guide strand
- Test parameters: shRNA
Readout: sensor-assay potency score (higher = more potent)

Chain	Measured
TAAGTCCTCATCATCATCGAGC	-0.93
TAAGAGGTCGTTGTGAAGCTGC	-0.0408
TAGCACATAATCATCATCCCAT	0.659
TGCATCAGTAGCATCAACCTTG	0.0486
TCGAATACAATCTATAAGCTGC	0.194
TTAATTGTTCACACCAGTCTGG	-0.677
TTGCGTACAACCGTGAGCCTGG	0.726
TAGAGTTGAACAACCAGTGGTA	0.312

---

- Tgt: ORC1
- Assay overview: pooled miR-30 sensor sort-seq; sequence = guide strand
- Test parameters: shRNA
Entry flag: 1 (yes) if sensor-assay potency score (higher = more potent) reaches 0.3; 0 (no) if it does not.

Chain	Group
TAGAGGTCGCTTCATTCTGGGC	0 (no)
TCAATCAACACAAACTGTCCAA	1 (yes)
TCATTTTTCAGATTCGTCGGTA	0 (no)
TTGCACATAGACTTGGTGGGGC	1 (yes)
TTTTCGAAGCTGCAATTCGGGT	0 (no)
TCTCGGTGGAACAACCTTCTGT	0 (no)
TAAGAGAGTCCAGTCTCTCTGG	0 (no)
TACAGCAGAAACATGCAGCCTC	1 (yes)

---

- Tgt: OSBPL11
- Assay overview: pooled miR-30 sensor sort-seq; sequence = guide strand
- Test parameters: shRNA
Each entry below carries its recorded sensor-assay potency score (higher = more potent).
Readout: sensor-assay potency score (higher = more potent)

Chain	Measured
TACATTCTGCATAAAATCCTGA	0.486
TATCTGAAGTCTGCTAACCCAG	-1.27
TAAATTAGTTCTTTTGCTCAGT	-0.186
AATAGCTTCAGTATGATGCTGT	0.478
TTTACCACTTTGGTCTTGCTGC	-0.424
TTTACTTCAGCTGTAACCCGAT	0.406
TTGTGCTTTACTTCAGCTGTAA	-0.271
TTACACACATCTTCCTCTCTGT	0.858
TATACTTCATTAAATAGCCATA	-1.62
TTAAGTCTCTTTGTTGTCCTTC	0.3

---

- Tgt: ZNF592
- Assay overview: pooled miR-30 sensor sort-seq; sequence = guide strand
- Test parameters: shRNA
Readout: sensor-assay potency score (higher = more potent)

Chain	Measured
TTGTTGAAGACCATTTCACAGG	-0.934
TTGAACTCCAAAGCTTCCCCGA	-0.465
TAATGTGGTCTTTCTCCGCTTC	-0.0177
TTAGTGACACTAGCCACTCTTT	-0.994
TTTGTCATGCTCTCGTCCCCTT	-0.419
ATTCTCTCTAGTCTCCATGGGC	-0.404
TTGTCCTCTGGAAATGTGCAGC	-0.92

---

Each entry below carries its recorded sensor-assay potency score (higher = more potent).
- Tgt: ADD2
- Assay overview: pooled miR-30 sensor sort-seq; sequence = guide strand
- Test parameters: shRNA
Readout: sensor-assay potency score (higher = more potent)

Chain	Tgt	Measured
TCGGTAGACACTGCTGATCTTG	ADD2	-0.972
TTGTTCTCGAATCTTGTTCCTC	ADD2	-0.198
TTTCTGTCTTCTTAGTACCTTC	ADD2	-0.453
TTAGAGGTATCAACATCCGTGT	ADD2	-0.242
TTGACCTCTGATTTAGTCTGAG	ADD2	0.252
TTGGCTAGTCACTTTGAGCAGC	ADD2	-0.569
TTTCTCTCCATCAAGTTCTAGT	ADD2	-0.228
TTCACTGCAAGAAACTCCCTTA	ADD2	0.39
TAGAGGTATCAACATCCGTGTC	ADD2	-1.2
TTGATAGGCGTCATCATGGAGA	ADD2	-0.575
TTCTAGTTTCTTCCTCTCCACC	ADD2	-1.02
TTCCTCTCCACCTCTTTCTTGT	ADD2	-0.367
TCAAGTTCTAGTTTCTTCCTCT	ADD2	0.727

---

Each entry below carries its recorded sensor-assay potency score (higher = more potent).
- Tgt: BABAM1
- Assay overview: pooled miR-30 sensor sort-seq; sequence = guide strand
- Test parameters: shRNA
Readout: sensor-assay potency score (higher = more potent)

Chain	Measured
TTATCCATGACAAACTAGGAGT	-0.739
ATCGTCTGCACGTTCTCTGTGA	-0.356
TTGGCAGTGACATTTCCTCTGA	-0.685
TTCTGGGAGACATTGAGGGCGT	-0.794
TTTCTCTGGACAGTTGACCCTT	0.0375
TATCCTTCCAACTCATCTCCTC	0.00157
TTCTCTGGACAGTTGACCCTTG	0.0913

---

- Tgt: C11orf54
- Assay overview: pooled miR-30 sensor sort-seq; sequence = guide strand
- Test parameters: shRNA
Each entry below carries its recorded sensor-assay potency score (higher = more potent).
Readout: sensor-assay potency score (higher = more potent)

Chain	Tgt	Measured
TAAACTCAGAATTGAACCCGAG	C11orf54	0.00773
ATAAGTAAGGCACACCTCCAAC	C11orf54	-1.21
TTCTTCATCAGAGTTCAAGGGG	C11orf54	0.466
ATAAACTCAGAATTGAACCCGA	C11orf54	0.903
TCTGAAATGGACCTGCTCCTGC	C11orf54	-0.481
TTATTCACTTCTTCATCAGAGT	C11orf54	-0.552

---

- Tgt: C6orf223
- Assay overview: pooled miR-30 sensor sort-seq; sequence = guide strand
- Test parameters: shRNA
Entry flag: True if sensor-assay potency score (higher = more potent) reaches -0.7; False if it does not.

Chain	Tgt	Group
AAACACTCTGTCTTCCTGCTTT	C6orf223	True
TTTCTTCTCGCGCTCGGGGTGT	C6orf223	False
TTGAGGACAGCTGAAGTCTTGC	C6orf223	False
TAATTAGAGCGCATTAGCCGTG	C6orf223	True
TTGGCTGAGTCAGACTCTCGGA	C6orf223	True

---

- Tgt: NFYC
- Assay overview: pooled miR-30 sensor sort-seq; sequence = guide strand
- Test parameters: shRNA
Entry flag: fulfilled if sensor-assay potency score (higher = more potent) reaches -1; not fulfilled if it does not.

Chain	Group
TAATCTTCTTAATACGAGCCAG	fulfilled
TTGCTGGATCTGGTAGAGCTGC	not fulfilled
ATCTCTTGGAACAATATCGATG	not fulfilled
TAGCATTGGACACACACTCAAC	fulfilled
TCTTGGAACAATATCGATGAGA	fulfilled
TAAGCGGATATACTGCAGCTGG	fulfilled

---

Each entry below carries its recorded sensor-assay potency score (higher = more potent).
- Tgt: GAB3
- Assay overview: pooled miR-30 sensor sort-seq; sequence = guide strand
- Test parameters: shRNA
Readout: sensor-assay potency score (higher = more potent)

Chain	Measured
TTTCGATGTAGCTTTCTTCGTC	0.694
TTGACCAGCTATCACATCTGGT	-0.37
TTTCCTTGAATCGTTATGCTTT	0.221
TAGTACTCCAAGACATCGGGGT	0.697
TTGACCTGTGTTGACCATCAGT	-0.72
TTATTCTGAAATTCCTTCCGAA	0.459
TTGCAGACCTGACTGATGCTGT	0.324
